- Study Target: p110γ (Homo sapiens, UniProt P48736)
- Sequence (P48736 whole entry): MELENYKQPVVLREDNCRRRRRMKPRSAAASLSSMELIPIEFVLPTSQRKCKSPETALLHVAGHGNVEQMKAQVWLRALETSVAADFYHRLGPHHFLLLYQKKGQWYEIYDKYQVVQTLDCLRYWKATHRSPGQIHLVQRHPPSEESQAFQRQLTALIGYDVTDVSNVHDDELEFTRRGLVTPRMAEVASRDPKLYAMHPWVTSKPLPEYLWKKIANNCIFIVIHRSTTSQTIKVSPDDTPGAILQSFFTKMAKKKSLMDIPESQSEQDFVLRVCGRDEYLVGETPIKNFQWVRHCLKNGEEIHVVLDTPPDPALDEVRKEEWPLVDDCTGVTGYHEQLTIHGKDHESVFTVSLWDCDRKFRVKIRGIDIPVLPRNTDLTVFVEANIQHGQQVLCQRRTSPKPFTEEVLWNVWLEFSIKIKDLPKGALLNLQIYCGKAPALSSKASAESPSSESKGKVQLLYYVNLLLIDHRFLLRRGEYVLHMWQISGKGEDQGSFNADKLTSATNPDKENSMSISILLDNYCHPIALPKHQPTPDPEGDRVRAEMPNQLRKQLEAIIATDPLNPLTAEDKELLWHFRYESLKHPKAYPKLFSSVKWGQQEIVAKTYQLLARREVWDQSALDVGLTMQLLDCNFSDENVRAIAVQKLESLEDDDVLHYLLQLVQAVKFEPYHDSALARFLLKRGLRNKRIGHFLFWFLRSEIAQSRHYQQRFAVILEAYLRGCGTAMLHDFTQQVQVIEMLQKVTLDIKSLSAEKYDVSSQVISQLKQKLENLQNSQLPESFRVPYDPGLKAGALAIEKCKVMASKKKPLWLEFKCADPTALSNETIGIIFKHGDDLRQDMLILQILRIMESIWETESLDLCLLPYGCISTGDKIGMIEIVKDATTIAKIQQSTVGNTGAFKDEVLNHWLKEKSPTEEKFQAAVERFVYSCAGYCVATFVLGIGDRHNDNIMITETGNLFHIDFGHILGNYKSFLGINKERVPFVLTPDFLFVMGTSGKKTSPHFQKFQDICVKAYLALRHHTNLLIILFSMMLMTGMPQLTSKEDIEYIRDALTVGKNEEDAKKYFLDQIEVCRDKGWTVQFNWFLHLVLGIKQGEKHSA
- Test Protocol: Transcreener KINASE Assay, kinase inhibition of p110γ
- Assay type: biochemical
- Measurement Context: 1 uM test compound
Measure Name: PI3Kγ IH % @ 1 uM (%)

Below, 6 compounds whose answers are already recorded.
NC(=O)c1ccn2nc([C@@H]3CCCN3c3ncnc4[nH]cnc34)n(-c3ccccc3)c(=O)c12    46.5
CC(Nc1ncnc2[nH]cnc12)c1cn2ccc(Cl)c2c(=O)n1-c1cccc(F)c1 (stereo not drawn)    97.3
CC(=O)c1c[nH]c2ncnc(N3CCC[C@H]3c3nn4ccc(Cl)c4c(=O)n3-c3ccc(F)cc3)c12    92.2
Nc1ccc(-c2c[nH]c3ncnc(N4CCOC[C@H]4c4nn5ccc(Cl)c5c(=O)n4-c4ccccc4)c23)cn1    58.3
Nc1nc2c(c(N3CCCC3c3cn4ccc(Cl)c4c(=O)n3-c3ccccc3)n1)C(=O)CCN2 (stereo not drawn)    97.2
Cc1nc(N)nc(N2CC[C@H]2c2nn3ccc(C#N)c3c(=O)n2-c2ccccc2)c1C#N    91.1

A: C#Cc1ccn2nc([C@@H]3CCN3c3ncnc4[nH]cc(C#N)c34)n(-c3ccccc3)c(=O)c12
B: CC(Nc1ncnc2[nH]cc(S(C)(=O)=O)c12)c1cc2ncc(Cl)n2c(=O)n1-c1ccccc1 (stereo not drawn)
Compare reported PI3Kγ IH % @ 1 uM values for A and B . Which is lower? Record your answer as the label of the chosen record.
B

* * *

- Study Target: p110β/p85α (Homo sapiens)
- Test Protocol: Transcreener KINASE Assay, kinase inhibition of p110β/p85α
- Format: biochemical
- Measurement Context: 1 uM test compound
Measure Name: PI3Kβ IH % @ 1 uM (%)

O=c1c2c(Cl)ccn2nc([C@@H]2CCN2c2ncnc3[nH]cnc23)n1-c1ccccc1    18.5
CC(=O)c1c(N)ncnc1N1CC[C@H]1c1nn2ccc(Cl)c2c(=O)n1-c1ccccc1    51.5
Nc1nc2c(c(N3CC[C@H]3c3nn4ccc(F)c4c(=O)n3-c3ccccc3)n1)C(=O)CCN2    −10.7
CO[C@H]1C[C@@H](c2nn3ccc(Cl)c3c(=O)n2-c2ccccc2)N(c2ncnc3[nH]cnc23)C1    74.5
CC(Nc1ncnc2[nH]cc(C#N)c12)c1cn2cccc2c(=O)n1-c1ccccc1 (centres unmarked)    56.4

1: N#Cc1c[nH]c2ncnc(N3CC[C@H]3c3nn4ccc(Cl)c4c(=O)n3Cc3ccccn3)c12
2: COCCO[C@H]1C[C@@H](c2nn3ccc(Cl)c3c(=O)n2-c2ccccc2)N(c2ncnc3[nH]cc(C#N)c23)C1
3: Cc1nc(N)nc(N2CC[C@H]2c2nn3ccc(Cl)c3c(=O)n2-c2ccccc2)c1Cl
4: COc1ccc(-c2n[nH]c3ncnc(N4CC[C@H]4c4nn5ccc(Cl)c5c(=O)n4-c4ccccc4)c23)cn1
5: N#Cc1c[nH]c2ncnc(N3CCC[C@H]3c3nn4ccc(C(N)=O)c4c(=O)n3-c3ccccc3)c12
Hey, quick one: sort these by PI3Kβ IH % @ 1 uM, largest value first please. Please express your ranking as an ordered list of the labels.
2, 3, 5, 4, 1

a: C[S+]([O-])c1c[nH]c2ncnc(N3CCC[C@H]3c3nn4ccc(Cl)c4c(=O)n3-c3cccc(F)c3)c12 (single isomer, unassigned) [Compound 387]
b: CC(=O)Nc1c[nH]c2ncnc(N3CCC[C@H]3c3nn4ccc(Cl)c4c(=O)n3-c3ccccc3)c12
c: C[S+]([O-])c1cnc(N)nc1N1CC[C@H]1c1nn2ccc(Cl)c2c(=O)n1-c1ccccc1 (some centres unmarked)
d: O=c1c2c(Br)ccn2nc([C@@H]2CCN2c2ncnc3[nH]cnc23)n1-c1ccccc1
List items by PI3Kβ IH % @ 1 uM in falling order. Answer with the labels in sequence, matching the requested order.
b, a, d, c
(b: 80.7%, a: 39.6%, d: 21.7%, c: 3.5%)

A: CC(=O)c1cnc(N)nc1N1CCCC1c1cn2ccc(Cl)c2c(=O)n1-c1ccccc1 (centres unmarked)
B: C[S+]([O-])c1n[nH]c2ncnc(N3CCC[C@H]3c3nn4ccc(Cl)c4c(=O)n3-c3ccccc3)c12 (some centres unmarked)
Hey, which is lower on measured PI3Kβ IH % @ 1 uM, A or B ? Record your answer as the label of the chosen record.
B

* * *

Parameter pIC50, tested on p110γ (Homo sapiens, UniProt P48736), listed per item.
pIC50: −log10 of the molar value.
Measure Name: pIC50

C[C@H](Nc1nc(N)ncc1C#N)c1cc2ncc(Cl)n2c(=O)n1-c1ccccc1 (single isomer, unassigned) [Compound 385]    8.00
C[C@H]1CN(c2nc(N)ncc2Cl)[C@@H]1c1nn2ccc(Cl)c2c(=O)n1-c1ccccc1 [Compound 465]    7.64
N#Cc1ncc(-c2c[nH]c3ncnc(N4CC[C@H]4c4nn5ccc(F)c5c(=O)n4-c4ccccc4)c23)cn1 [Compound 184]    8.10
CC(Nc1ncnc(N)c1C#N)c1cc2ccc(Cl)n2c(=O)n1-c1ccccc1 (stereo not drawn) [Compound 125]    8.52
CC(=O)c1cnc(N)nc1N1CCC[C@H]1c1nn2ccc(Cl)c2c(=O)n1-c1ccccc1 [Compound 369]    8.52
N#Cc1c(N)ncnc1N1CC[C@H]1c1nn2ccc(Cl)c2c(=O)n1-c1ccccc1 [Compound 31]    6.82

a: CC(=O)Nc1c[nH]c2ncnc(N3CCC[C@H]3c3nn4ccc(Cl)c4c(=O)n3-c3ccccc3)c12 [Compound 307]
b: Cn1c([C@@H]2CCCN2c2ncnc3[nH]cc(C#N)c23)nn2ccc(Cl)c2c1=O [Compound 63]
c: Cc1nc(N)nc(N2C[C@H](C)C2c2nn3ccc(Cl)c3c(=O)n2-c2ccccc2)c1C#N (stereo partly drawn) [Compound 437]
Please put the entries in order of rising pIC50. Could you list the labels in the order requested?
b, a, c

A: CC(=O)c1cnc(N)nc1N[C@@H](C)c1cc2ncc(Cl)n2c(=O)n1-c1ccccc1 [Compound 447]
B: N#Cc1c[nH]c2ncnc(N3CCCC3c3cn4ccc(Cl)c4c(=O)n3-c3ccccc3)c12 (stereo not drawn) [Compound 364]
Returns: the argument ( A or B ) having the larger pIC50. In your reply, give the label of the chosen option.
A

a: N#Cc1c[nH]c2ncnc(N3CCC[C@H]3c3nn4ccc(Cl)c4c(=O)n3Cc3cccnc3)c12 [Compound 66]
b: N#C[C@@H]1C[C@@H](c2nn3ccc(Cl)c3c(=O)n2-c2ccccc2)N(c2ncnc3[nH]cnc23)C1 [Compound 358]
c: CC(=O)c1cnc(N)nc1N1CC[C@H]1c1nn2ccc(Cl)c2c(=O)n1-c1ccc(F)cc1 [Compound 302]
d: CC(C)Cn1c([C@@H]2CCCN2c2ncnc3[nH]cc(C#N)c23)nn2ccc(Cl)c2c1=O [Compound 64]
Write the entries in order, lowest recorded pIC50 first. Please respond by ranking the labels in the order requested.
b, d, a, c

1: C[S@@+]([O-])c1c[nH]c2ncnc(N3CCC[C@H]3c3nn4ccc(Cl)c4c(=O)n3-c3ccccc3)c12 [Compound 383]
2: N#Cc1c[nH]c2ncnc(N3C[C@@H](F)C[C@H]3c3nn4ccc(Cl)c4c(=O)n3Cc3ccccn3)c12 [Compound 158]
Pick the one with the larger pIC50: 1 vs 2 Refer to your chosen item by its label in the answer.
1

* * *

- Study Target: p110β/p85α (Homo sapiens, UniProt P42338)
- Sequence (P42338 whole entry): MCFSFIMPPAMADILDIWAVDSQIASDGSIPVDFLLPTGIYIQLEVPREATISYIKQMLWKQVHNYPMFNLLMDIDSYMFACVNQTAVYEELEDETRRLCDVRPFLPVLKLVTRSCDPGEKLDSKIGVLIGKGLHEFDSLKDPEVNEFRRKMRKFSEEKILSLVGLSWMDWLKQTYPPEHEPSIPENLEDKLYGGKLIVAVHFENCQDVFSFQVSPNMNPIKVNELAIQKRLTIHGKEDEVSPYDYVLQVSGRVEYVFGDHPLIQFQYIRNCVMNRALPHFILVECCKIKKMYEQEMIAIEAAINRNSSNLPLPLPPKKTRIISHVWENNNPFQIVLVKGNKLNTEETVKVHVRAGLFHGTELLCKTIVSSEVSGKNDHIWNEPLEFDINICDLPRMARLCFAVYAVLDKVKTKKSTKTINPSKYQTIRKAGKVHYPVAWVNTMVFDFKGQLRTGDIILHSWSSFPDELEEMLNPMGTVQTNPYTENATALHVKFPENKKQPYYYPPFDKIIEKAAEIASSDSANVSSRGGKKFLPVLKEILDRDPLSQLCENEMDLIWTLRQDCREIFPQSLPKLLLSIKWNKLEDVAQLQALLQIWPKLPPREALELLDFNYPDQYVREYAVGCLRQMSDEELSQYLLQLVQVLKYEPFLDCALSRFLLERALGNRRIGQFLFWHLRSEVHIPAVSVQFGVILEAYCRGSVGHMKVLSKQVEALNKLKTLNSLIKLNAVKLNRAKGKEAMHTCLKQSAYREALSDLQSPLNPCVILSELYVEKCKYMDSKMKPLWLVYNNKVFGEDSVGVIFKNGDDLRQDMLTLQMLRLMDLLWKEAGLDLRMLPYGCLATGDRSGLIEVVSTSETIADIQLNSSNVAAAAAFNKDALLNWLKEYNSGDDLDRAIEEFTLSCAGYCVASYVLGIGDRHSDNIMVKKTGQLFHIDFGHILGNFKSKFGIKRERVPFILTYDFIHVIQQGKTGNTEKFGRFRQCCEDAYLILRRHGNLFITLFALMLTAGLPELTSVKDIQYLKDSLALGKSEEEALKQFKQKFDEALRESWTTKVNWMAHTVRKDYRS
- Sequence (P27986 2-724 partner): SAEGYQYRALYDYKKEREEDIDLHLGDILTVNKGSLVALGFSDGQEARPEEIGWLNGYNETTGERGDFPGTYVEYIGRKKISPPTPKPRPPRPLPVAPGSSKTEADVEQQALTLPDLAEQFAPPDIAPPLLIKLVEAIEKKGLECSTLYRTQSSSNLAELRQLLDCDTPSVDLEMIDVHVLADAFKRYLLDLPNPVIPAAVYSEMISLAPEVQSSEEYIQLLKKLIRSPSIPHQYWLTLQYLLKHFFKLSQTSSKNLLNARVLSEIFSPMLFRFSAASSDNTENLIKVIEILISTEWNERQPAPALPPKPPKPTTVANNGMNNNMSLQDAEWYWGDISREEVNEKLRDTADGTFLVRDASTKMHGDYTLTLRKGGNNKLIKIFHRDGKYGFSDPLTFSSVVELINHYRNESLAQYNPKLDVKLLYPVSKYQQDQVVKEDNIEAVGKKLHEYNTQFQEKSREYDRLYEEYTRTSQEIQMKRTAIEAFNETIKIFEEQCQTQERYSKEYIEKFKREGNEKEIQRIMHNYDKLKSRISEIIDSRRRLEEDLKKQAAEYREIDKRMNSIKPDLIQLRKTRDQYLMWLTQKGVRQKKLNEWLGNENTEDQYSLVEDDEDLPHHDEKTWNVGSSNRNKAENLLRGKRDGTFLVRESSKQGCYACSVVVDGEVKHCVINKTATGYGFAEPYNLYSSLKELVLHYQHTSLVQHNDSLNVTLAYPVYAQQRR
- Test Protocol: Transcreener KINASE Assay, kinase inhibition of p110β/p85α
- Type: biochemical
- Measurement Context: 1 uM test compound
Measure Name: PI3Kβ IH % @ 1 uM (%)

CC(=O)c1cnc(N)nc1N1C[C@H](C)[C@H]1c1nn2ccc(C#N)c2c(=O)n1-c1ccccc1    71.5

P: O=c1c2c(Cl)ccn2nc([C@@H]2CC(F)(F)CN2c2ncnc3[nH]cnc23)n1Cc1ncccn1
Q: C[C@H]1CN(c2ncnc3[nH]cc(C#N)c23)[C@@H]1c1nn2ccc(Cl)c2c(=O)n1-c1ccc(F)cc1
When P and Q are compared, which has the higher number for PI3Kβ IH % @ 1 uM? Answer by stating the label of the chosen item.
Q

* * *

- Study Target: p110δ/p85α (Homo sapiens, UniProt O00329)
- Sequence (O00329 whole entry): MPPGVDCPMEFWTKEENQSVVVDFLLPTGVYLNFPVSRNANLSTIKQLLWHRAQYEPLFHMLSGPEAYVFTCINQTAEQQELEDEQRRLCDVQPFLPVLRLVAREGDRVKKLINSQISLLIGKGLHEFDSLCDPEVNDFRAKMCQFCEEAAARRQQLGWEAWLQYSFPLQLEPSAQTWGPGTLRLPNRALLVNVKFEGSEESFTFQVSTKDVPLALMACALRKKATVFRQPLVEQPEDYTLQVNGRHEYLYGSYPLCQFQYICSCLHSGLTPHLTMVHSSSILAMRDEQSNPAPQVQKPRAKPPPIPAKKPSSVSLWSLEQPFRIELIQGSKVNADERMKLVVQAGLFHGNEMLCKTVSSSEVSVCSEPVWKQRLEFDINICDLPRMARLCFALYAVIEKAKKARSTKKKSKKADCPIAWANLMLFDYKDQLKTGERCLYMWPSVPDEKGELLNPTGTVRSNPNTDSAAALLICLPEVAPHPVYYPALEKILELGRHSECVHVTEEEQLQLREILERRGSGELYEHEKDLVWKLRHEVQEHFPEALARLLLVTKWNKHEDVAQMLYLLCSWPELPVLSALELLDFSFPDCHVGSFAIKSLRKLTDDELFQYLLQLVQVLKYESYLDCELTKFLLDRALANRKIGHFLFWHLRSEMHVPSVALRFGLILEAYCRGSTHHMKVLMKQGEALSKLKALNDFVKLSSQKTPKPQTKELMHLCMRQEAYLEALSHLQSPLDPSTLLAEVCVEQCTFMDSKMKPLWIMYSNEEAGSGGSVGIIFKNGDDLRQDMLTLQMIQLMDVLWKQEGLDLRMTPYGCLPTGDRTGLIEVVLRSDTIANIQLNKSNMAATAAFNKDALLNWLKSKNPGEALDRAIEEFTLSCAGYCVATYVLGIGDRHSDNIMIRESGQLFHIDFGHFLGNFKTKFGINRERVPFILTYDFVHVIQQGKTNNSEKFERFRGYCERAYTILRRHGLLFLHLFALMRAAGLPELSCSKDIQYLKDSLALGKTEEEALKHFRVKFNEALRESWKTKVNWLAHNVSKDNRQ
- Sequence (P27986 whole entry partner): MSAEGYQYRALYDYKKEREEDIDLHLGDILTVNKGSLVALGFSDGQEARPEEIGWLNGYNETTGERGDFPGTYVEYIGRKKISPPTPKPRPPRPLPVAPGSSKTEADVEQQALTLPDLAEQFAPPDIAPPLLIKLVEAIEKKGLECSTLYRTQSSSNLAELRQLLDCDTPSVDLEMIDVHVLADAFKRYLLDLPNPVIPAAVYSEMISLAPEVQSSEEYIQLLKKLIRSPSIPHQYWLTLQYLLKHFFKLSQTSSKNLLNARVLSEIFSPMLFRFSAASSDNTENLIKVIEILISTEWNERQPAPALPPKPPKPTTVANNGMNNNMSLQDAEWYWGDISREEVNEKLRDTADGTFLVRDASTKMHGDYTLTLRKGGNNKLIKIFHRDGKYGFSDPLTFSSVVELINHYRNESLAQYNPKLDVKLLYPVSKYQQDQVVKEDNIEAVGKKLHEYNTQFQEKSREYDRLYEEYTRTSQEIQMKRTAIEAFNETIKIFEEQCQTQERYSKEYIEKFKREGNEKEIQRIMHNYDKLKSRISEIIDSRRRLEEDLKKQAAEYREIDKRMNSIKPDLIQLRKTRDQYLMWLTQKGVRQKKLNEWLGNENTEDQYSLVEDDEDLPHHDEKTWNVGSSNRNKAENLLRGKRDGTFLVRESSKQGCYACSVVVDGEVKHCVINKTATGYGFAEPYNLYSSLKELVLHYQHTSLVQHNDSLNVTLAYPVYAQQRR
- Test Protocol: Transcreener KINASE Assay, kinase inhibition of p110δ/p85α
- Assay type: biochemical
- Measurement Context: 1 uM test compound
Measure Name: PI3Kδ IH % @ 1 uM (%)

# annotated cases, reported PI3Kδ IH % @ 1 uM shown
C[C@H]1CN(c2nc(N)ncc2C#N)C1c1nn2ccc(Cl)c2c(=O)n1-c1ccc(F)cc1 (stereo partly shown)    81.3
CC(=O)c1cnc(N)nc1N1CC[C@H]1c1nn2ccc(Cl)c2c(=O)n1-c1ccc(F)cc1    96.5

a: CC(=O)c1n[nH]c2ncnc(N3CC[C@H]3c3nn4ccc(Cl)c4c(=O)n3-c3ccccc3)c12
b: Nc1ccc(-c2c[nH]c3ncnc(N4CCOC[C@H]4c4nn5ccc(Cl)c5c(=O)n4-c4ccccc4)c23)cn1
Param metric = PI3Kδ IH % @ 1 uM; output whichever of a , b has the minimum value. # answer = label of selected item
a
